# protocol: LD50 in the mouse
# conditionDetails: in vivo, po, per os
readoutName: LD50 (mg/kg)
# value in mg/kg; strip the unit string

INPUT: Which value of LD50 has been reported for `Cc1ccc(CSc2nc3cc4ccccc4cc3[nH]2)nc1` in the records?
OUTPUT: 8000
